Reference source: patent US6037335A

# Tested on: HBV
# test: Inhibition of HBV growth in rat serum upon oral administration (HB611 cells cultured with 5% serum)
# Format: in vivo
# conditionInfo: Hepatitis B virus, HB611; Rat, single oral dose 0.5 g/kg, serum 1 hour after administration, 5% serum in medium; read-out: HBV-DNA Synthesis Inhibition
Binary classification by inhibition at 500 mg/kg, with 30% as an inclusive lower bound for yes; all other cases are no.

Here's what some known entries look like.
[
  {
    "compound": "Nc1ncnc2c1ncn2CCOCP(=O)(OCCOc1ccccc1)OCCOc1ccccc1",
    "testedOn": "HBV",
    "assignedCategory": "yes"
  },
  {
    "compound": "CCCCC(=O)OCCOP(=O)(COCCn1cnc2c(N)ncnc21)OCCOC(=O)CCCC",
    "testedOn": "HBV",
    "assignedCategory": "yes"
  },
  {
    "compound": "Nc1ncnc2c1ncn2CCOCP(=O)(OCCO)OCCO [Reference Example 2, reference compound]",
    "testedOn": "HBV",
    "assignedCategory": "no"
  },
  {
    "compound": "CC(=O)NCCOP(=O)(COCCn1cnc2c(N)ncnc21)OCCNC(C)=O [Reference Example 1, reference compound]",
    "testedOn": "HBV",
    "assignedCategory": "no"
  },
  {
    "compound": "COCCOP(=O)(COCCn1cnc2c(N)ncnc21)OCCOC",
    "testedOn": "HBV",
    "assignedCategory": "no"
  }
]

### Prompt Does Nc1ncnc2c1ncn2CCOCP(=O)(OCCOCc1ccccc1)OCCOCc1ccccc1 have a reported inhibition at 500 mg/kg of at least 30%?
### Response yes
